normalized growth overview
TEST_DETAILS: chemical genetic growth profiling, strain panel (AID 1159580);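 also: tested at 20 µM; growth read once vehicle control cultures reached saturation at 30 °C; 1 = growth at the plate median or of vehicle wells; lower values mean less growth of the strain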
COND: S. cerevisiae deletion strains, growth OD, locus YGL227W, strain vid30, hits give low values
The whole screen tested about 5,500 compounds, of which about 2,000 (36%) were called active. About 18% were inconclusive and are not listed. The list shows a part of the results.
Answer field: number only, no words.

Example entries begin here.
COC(=O)[C@]1(C)CCC[C@]2(C)c3ccc(C(C)C)cc3C(=O)CC12 (some centres not stated) : 0.972
COC(=O)[C@@]1(C)CCC[C@]2(C)c3ccc(O)c(C(C)C)c3CCC12 (some centres not stated) : 0.97
O=C(OC1Cc2c(O)cc(O)cc2OC1c1cc(=O)c(O)c2c(O)c(O)cc(C3Oc4cc(O)cc(O)c4CC3O)c2c1)c1cc(O)c(O)c(O)c1 (configuration not stated) : 1
CCCCCc1c2c(cc(O)c1C(=O)O)OC(=O)c1c(cc(OC)cc1C(=O)CCCC)O2 : 1.03
O=C(O[C@@H]1Cc2c(O)cc(O)cc2O[C@@H]1c1cc(O)c(=O)c2c(O)c(O)cc([C@H]3Oc4cc(O)cc(O)c4C[C@H]3OC(=O)c3cc(O)c(O)c(O)c3)c2c1)c1cc(O)c(O)c(O)c1 : 0.989
CCCCCCCCCCCC1=C(O)C(=O)C=C(O)C1=O : 0.909

Now look at this entry.
Task: Any idea what its normalized growth is? The compound is C[C@]12CCC3c4ccc(O)cc4CCC3C1CC[C@@H]2O (some centres not stated)
Output: 1.03

====

TEST_DETAILS: chemical genetic growth profiling, strain panel (AID 1159580)
COND: S. cerevisiae deletion strains, growth OD, locus YGL253W, strain hxk2, hits give low values
Among all 5,500 compounds or so, about 2,000 (36%) were called active. Inconclusive results (about 18%) are left out. The list shows a part of the results.
RESULT_TYPE: normalized growth
Answer field: number only, no words.

Example entries begin here.
CC(=O)[C@@]1(O)CCC2C3C[C@H](C)C4=CC(=O)C=CC4(C)[C@@]3(F)[C@@H](O)C[C@@]21C (some centres not stated) : 0.961
COC(=O)c1c(C)cc(OC)cc1O : 0.979
O=c1ccc2cc(OC3OC(CO)C(O)C(O)C3O)c(O)cc2o1 (configuration not stated) : 0.996
CCOC(=O)c1c(C)cc(O)cc1O : 0.918
CC(CC(C(N)=O)(c1ccccc1)c1ccccc1)N(C)C (configuration not stated) : 0.937
CCC(=O)c1c(O)cc(O)cc1O : 0.986
NC(=O)c1ncn([C@@H]2O[C@H](CO)[C@@H](O)[C@H]2O)n1 : 0.982
C[C@]12C=CC(=O)C=C1CCC1C2[C@@H](O)C[C@@]2(C)C1CC[C@]2(O)C(=O)COP(=O)(O)O (some centres not stated) : 0.995
CCCCCCC(C)OC(=O)COc1ccc(Cl)cc1Cl (configuration not stated) : 0.987
COC(=O)c1c(C)cc(O)cc1O : 1.01

Task: Any idea what its normalized growth is? The compound is NC(=O)NCCCC(N)C(=O)O (configuration not stated)
Output: 1

Task: # iterate: "Cc1cc(OC(=O)c2c(C)cc(O)cc2O)cc(O)c1C(=O)O"
Output: 0.99

====

TEST_DETAILS: chemical genetic growth profiling, strain panel (AID 1159580)
COND: S. cerevisiae deletion strains, growth OD, locus YHR079C, strain IRE1 (second series), hits give low values
The campaign covered roughly 5,500 compounds. About 2,000 (36%) were called active. Not shown: some 18% with an inconclusive outcome. Some of the results follow.
RESULT_TYPE: normalized growth
Answer field: number only, no words.

Example entries begin here.
CC(CC(O)C1OC1(C)C)[C@@H]1CCC2(C)C3=CCC4C(C)(C)C(=O)CCC4(C)C3CC[C@@]12C (stereo partly specified) : 1.03
C[C@@H]([C@H](O)c1ccccc1)N(C)C : 1.01
NC(=O)c1ncn([C@@H]2O[C@H](CO)[C@@H](O)[C@H]2O)n1 : 1
CCN1C[C@]2(C)CC[C@H](OC)[C@]34C2[C@H](O)[C@]2(OCO[C@@]25C[C@H](OC)[C@H]2C[C@]3(O)C5[C@H]2O)C14 : 1.01
COc1ccc2c(c1)CCC1C2CC[C@@]2(C)C1CC[C@@H]2O (stereo partly specified) : 0.787
CC(C)c1c(O)ccc2c1CCC1[C@@](C)(C=O)CCC[C@]21C (stereo partly specified) : 0.579

Now look at this entry.
Task: Any idea what its normalized growth is? The compound is "NC(=NCCC[C@H](N)C(=O)O)N[N+](=O)[O-]"
Output: 1.01

====

TEST_DETAILS: chemical genetic growth profiling, strain panel (AID 1159580);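 also: tested at 20 µM; growth read once vehicle control cultures reached saturation at 30 °C; 1 = growth at the plate median or of vehicle wells; lower values mean less growth of the strain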
COND: S. cerevisiae deletion strains, growth OD, locus YLR102C, strain apc9
Among all 5,500 compounds or so, about 2,000 (36%) were called active. Roughly 18% stayed inconclusive and do not appear here. No stated cut-off is given here; in the data, active means normalized growth mostly below about 0.91 (no sharp cut-off); inconclusive means no clear call, values can overlap the other calls; inactive means mostly above about 0.92. This is one part of the list.
Pick from True = active, False = inactive when you respond.

Some solved cases for reference:
CC1O[C@@H](Oc2c(-c3ccc(O)c(O)c3)oc3cc(O)cc(O)c3c2=O)[C@H](O)[C@H](O)[C@H]1O (stereo partly drawn) : False
COc1ccc(-c2oc3c(CC=C(C)C)c(O[C@@H]4O[C@H](CO)[C@@H](O)[C@H](O)[C@H]4O)cc(O)c3c(=O)c2O[C@@H]2O[C@@H](C)[C@H](O)[C@@H](O)[C@H]2O)cc1 : False
CCCC(C)(COC(N)=O)COC(=O)NC(C)C (stereo not drawn) : False
CC(=O)O[C@@H]1CC2C(C)(C)C(=O)C=C[C@]2(C)C2CC[C@@]3(C)[C@H](c4ccoc4)OC(=O)[C@H]4O[C@]43[C@@]21C (stereo partly drawn) : False

Task: // outcome(item) with item = "CCOC(=O)NC1=C(C2CC2)C(=O)C(NC(=O)OCC)=C(C2CC2)C1=O"
Output: False

Task: # iterate: "NC(N)=NC(=O)c1nc(Cl)c(N2CCCCCC2)nc1N"
Output: False

Task: # iterate: "CNC(=O)Oc1cccc2c1OC(C)(C)O2"
Output: False

Task: # iterate: NC(CSCSCC(N)C(=O)O)C(=O)O (stereo not drawn)
Output: False

Task: # iterate: "COc1ccccc1/C=C\C(=O)O"
Output: False

Task: # iterate: COC(=O)C[C@H]1C(C)(C)C2(Cl)O[C@@]34CC2C(=O)[C@]1(C)C3CC[C@]1(C)C4=CC(=O)O[C@H]1c1ccoc1 (stereo partly drawn)
Output: False

Task: # iterate: CCN(Cc1ccncc1)C(=O)C(CO)c1ccccc1 (stereo not drawn)
Output: False

Task: # iterate: CC1(C)C=CC(=O)[C@@]2(C)C1CC(=O)[C@]1(C)C2CC[C@@]2(C)[C@H](c3ccoc3)OC(=O)C3OC321 (stereo partly drawn)
Output: False

Task: # iterate: NC(=O)NCCCC(N)C(=O)O (stereo not drawn)
Output: False

====

normalized growth overview
TEST_DETAILS: chemical genetic growth profiling, strain panel (AID 1159580);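 also: tested at 20 µM; growth read once vehicle control cultures reached saturation at 30 °C; 1 = growth at the plate median or of vehicle wells; lower values mean less growth of the strain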
COND: S. cerevisiae deletion strains, growth OD, locus YDL101C, strain DUN1, hits give low values
Out of some 5,500 compounds screened, about 2,000 (36%) were called active. Another 18% or so got no clear call; they are omitted. The list shows a part of the results.
Answer field: number only, no words.

CC(=O)O[C@@H]1CC2C(C)(C)C(=O)C=C[C@]2(C)C2CC[C@@]3(C)[C@H](c4ccoc4)OC(=O)[C@H]4O[C@]43[C@@]21C (stereo partly drawn) : 1.01
FC(F)(F)c1ccc(Cl)c(NC(=S)NN=C2CCCCCC2)c1 : 1.07
CC1(C)O[C@H]2CC(=O)OC[C@]23[C@H]2CC[C@@]4(C)[C@H](c5ccoc5)OC(=O)[C@H]5O[C@]54[C@]2(C)C(=O)C[C@@H]13 : 0.985
O=C1Nc2ccccc2/C1=C\c1cccc([N+](=O)[O-])c1 : 0.97
COc1cc(OC)c2ccc(=O)oc2c1 : 1.01

Task: Any idea what its normalized growth is? The molecule is "CC(C)(C)NC(=S)N/N=C\c1ccccc1O"
Output: 0.964

Task: # iterate: "FC(F)(F)c1cccc(NC(=S)NN=C2CCCCCC2)c1"
Output: 0.984

Task: # iterate: "Clc1ccc(C=C2c3ccccc3-c3ccccc32)cc1"
Output: 0.986

Task: # iterate: CC(NC(=S)N/N=C\c1ccccc1O)c1ccccc1 (stereo not drawn)
Output: 0.977

Task: # iterate: "FC(F)(F)c1ccc(N2CCc3ccccc3C2)c(NC(=S)Nc2cc(Cl)cc(Cl)c2)c1"
Output: 0.978

====

TEST_DETAILS: chemical genetic growth profiling, strain panel (AID 1159580);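 also: tested at 20 µM; growth read once vehicle control cultures reached saturation at 30 °C; 1 = growth at the plate median or of vehicle wells; lower values mean less growth of the strain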
COND: S. cerevisiae deletion strains, growth OD, locus YHR079C, strain IRE1 (second series)
The whole screen tested about 5,500 compounds, of which about 2,000 (36%) were called active. Inconclusive results (about 18%) are left out. Cut-off read from the data, not from the text of the source: active = normalized growth mostly below about 0.91 (no sharp cut-off); inconclusive = no clear call, values can overlap the other calls; inactive = mostly above about 0.92. The list shows a part of the results.
Pick from active, inactive when you respond.

Some solved cases for reference:
C[C@@H]1O[C@@H](OC[C@H]2OC(Oc3c(-c4ccc(OCCO)c(OCCO)c4)oc4cc(OCCO)cc(O)c4c3=O)[C@H](O)[C@@H](O)[C@@H]2O)[C@H](O)[C@H](O)[C@H]1O (stereo partly drawn) : inactive
CCCCC1C(=O)N(c2ccccc2)N(c2ccc(O)cc2)C1=O (stereo not drawn) : inactive
CCCCCc1c2c(cc(O)c1C(=O)O)OC(=O)c1c(cc(OC)cc1C(=O)CCCC)O2 : inactive
COc1cc(OC)c2c(=O)c(O)c(-c3ccc(OC)c(OC)c3)oc2c1 : active
NS(=O)(=O)c1cc(C2(O)NC(=O)c3ccccc32)ccc1Cl (stereo not drawn) : inactive
COc1ccc(-c2oc3c(CC=C(C)C)c(O[C@@H]4O[C@H](CO)[C@@H](O)[C@H](O)[C@H]4O)cc(O)c3c(=O)c2O[C@@H]2O[C@@H](C)[C@H](O)[C@@H](O)[C@H]2O)cc1 : inactive

Task: // outcome(item) with item = "C=C[C@H]1CN2CC[C@H]1C[C@@H]2[C@@H](OC(=O)OCC)c1ccnc2ccc(OC)cc12"
Output: inactive

Task: # iterate: C[C@]12CCC3c4ccc(O)cc4CCC3C1CC[C@@H]2O (stereo partly drawn)
Output: inactive
